# target.or.system: ERK5 (Homo sapiens, UniProt Q13164)
# Construct: MEF2-luciferase reporter
# Sequence (Q13164 whole entry): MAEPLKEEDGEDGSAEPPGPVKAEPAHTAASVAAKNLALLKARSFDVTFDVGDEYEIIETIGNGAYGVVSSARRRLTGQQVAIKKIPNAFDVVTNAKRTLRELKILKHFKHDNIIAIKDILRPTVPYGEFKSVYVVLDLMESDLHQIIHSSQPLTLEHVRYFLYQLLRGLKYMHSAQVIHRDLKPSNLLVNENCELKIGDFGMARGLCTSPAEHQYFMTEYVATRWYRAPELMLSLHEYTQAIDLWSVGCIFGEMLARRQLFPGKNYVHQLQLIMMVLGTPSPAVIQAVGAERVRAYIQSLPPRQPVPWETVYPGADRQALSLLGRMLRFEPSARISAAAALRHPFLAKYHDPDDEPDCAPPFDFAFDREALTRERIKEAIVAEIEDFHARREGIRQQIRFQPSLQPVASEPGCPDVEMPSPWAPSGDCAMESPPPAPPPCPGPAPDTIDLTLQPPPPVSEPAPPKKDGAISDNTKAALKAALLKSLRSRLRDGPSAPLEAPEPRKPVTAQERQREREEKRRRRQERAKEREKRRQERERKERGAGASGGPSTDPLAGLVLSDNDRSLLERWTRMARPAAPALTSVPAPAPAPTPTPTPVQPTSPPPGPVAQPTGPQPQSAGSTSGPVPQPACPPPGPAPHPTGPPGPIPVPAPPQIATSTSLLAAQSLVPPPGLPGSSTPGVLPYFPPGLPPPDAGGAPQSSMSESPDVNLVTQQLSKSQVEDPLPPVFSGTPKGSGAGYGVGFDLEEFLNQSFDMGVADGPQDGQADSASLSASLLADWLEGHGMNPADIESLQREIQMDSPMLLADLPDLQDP
# assay.summary: Inhibition of Cellular ERK5 Activity (cell-based assay, MEF2 luciferase reporter in SN12C cells)
# condition.set: renal cancer cell line SN12C, doxycycline-induced MEKSDD, mean where repeated
property: IC50 (nM)

compound	IC50 / nM
O=C(c1ccc(S(F)(F)(F)(F)F)cc1)N1CCC(n2c(=O)[nH]c3ncc(C4CCOCC4)cc32)CC1	199
CO[C@H]1CC[C@@H](c2cnc3[nH]c(=O)n(C4CCN(C(=O)c5ccc(OC(F)(F)F)cc5)CC4)c3c2)CC1	536
Nc1cc(OC(F)(F)F)ccc1C(=O)N1CCC(n2c(=O)[nH]c3ncc(C4CCCO4)cc32)CC1 (racemic)	57
Nc1cc(OC(F)(F)F)ccc1C(=O)N1CCC(n2c(=O)[nH]c3ncc([C@H]4CC[C@H](O)CC4)cc32)CC1	205
O=C(c1ccc(OC(F)(F)F)cc1)N1CCC(n2c(=O)[nH]c3ncc(N4CCO[C@H](CO)C4)cc32)CC1	1860

A = CN1CCC(Oc2cnc3[nH]c(=O)n(C4CCN(C(=O)c5ccc(OC(F)(F)F)cc5N)CC4)c3c2)C1 (single isomer, unassigned; isomer 2) [Example 48]
B = Nc1cc(OC(F)(F)F)ccc1C(=O)N1CCC(n2c(=O)[nH]c3ncc(C45CCC(C4)C5)cc32)CC1
[ask] Recorded IC50 values differ for A and B ; which one is higher? Choose, then provide that item's label.
[reply] B
(B: 347 nM, A: 117 nM)

* * *

# target.or.system: ERK5 (Homo sapiens, UniProt Q13164)
# Construct: MEF2-luciferase reporter
# assay.summary: Inhibition of Cellular ERK5 Activity (cell-based assay, MEF2 luciferase reporter in SN12C cells)
# condition.set: renal cancer cell line SN12C, doxycycline-induced MEKSDD, mean where repeated
property: IC50 (nM)

molecule	target.or.system	measure.unit	measurement
Nc1cc(OC(F)(F)F)ccc1C(=O)N1CCC(n2c(=O)[nH]c3ncc(C4CCN(CC(F)(F)F)CC4)cc32)CC1	ERK5 (Homo sapiens, UniProt Q13164)	nM	184
Nc1cc(OC(F)(F)F)ccc1C(=O)N1CCC(n2c(=O)[nH]c3ncc(N4CCOCC4)cc32)CC1	ERK5 (Homo sapiens, UniProt Q13164)	nM	72
CO[C@H]1CC[C@@H](c2cnc3[nH]c(=O)n(C4CCN(C(=O)c5ccc(OC(F)(F)F)cc5N)CC4)c3c2)CC1	ERK5 (Homo sapiens, UniProt Q13164)	nM	199
Nc1cc(OC(F)(F)F)ccc1C(=O)N1CCC(n2c(=O)[nH]c3ncc(C45CCOCC4C5)cc32)CC1 (racemic)	ERK5 (Homo sapiens, UniProt Q13164)	nM	170
O=C(c1ccc(OC(F)(F)F)cc1)N1CCC(n2c(=O)[nH]c3ncc([C@@H]4CCCC[C@@H](O)C4)cc32)CC1 (racemic)	ERK5 (Homo sapiens, UniProt Q13164)	nM	547

1 = Nc1cc(OC(F)(F)F)ccc1C(=O)N1CCC(n2c(=O)[nH]c3ncc(C4CCCCC4)cc32)CC1
2 = CC(C)(C)OC(=O)Nc1cc(OC(F)(F)F)ccc1C(=O)N1CCC(n2c(=O)[nH]c3ncc(Br)cc32)CC1
[ask] Short answer wanted: higher IC50, 1 or 2 ? The response must carry the label of the picked entry.
[reply] 2
